protocol.details: Maximum tolerated dose (MTD) without inducing hypercalcemia, oral daily dosing for four days, serum calcium assay
Assay type: in vivo, C57BL/6 mice
condition.description: mouse, po; female C57BL/6 mice, p.o. daily for four days; highest dose without hypercalcemia (serum calcium >10.7 mg/dl)
measurement.label: MTD at 4 days

compound	measurement.label	result
CC(=O)O[C@@H]1CC(=C/C=C2\CCC[C@]3(C)C([C@H](C)CCC(=O)C(C)(C)O)=CCC23)C[C@@H](OC(C)=O)C1 (stereo partly shown)	MTD at 4 days	> 0.3 mg/kg
